Ki for UniProt:P47901, merged from several publications.

Kindly note: UniProt:P47901, CCOc1ncccc1C1(NC(=O)N2CCN(C3CCN(C)CC3)CC2)C(=O)N(S(=O)(=O)c2ccccc2OC)c2ccc(C#N)cc21 (racemic) , Ki value reported: 10 to 50 nM

Kindly note: UniProt:P47901, CCN1CCN(C[C@H]2CCN(C(=O)C(c3ccccc3)n3c(=O)n(S(=O)(=O)c4ccc(OC)cc4)c4ccc(C#N)cc43)C2)CC1 (stereo partly shown) , Ki value reported: < 100 nM

Kindly note: UniProt:P47901, COc1ccc(CN2CCN(C)CC2)cc1C1(N2CCC[C@H]2c2ncco2)C(=O)N(S(=O)(=O)c2ccc(OC(F)F)cc2)c2ccc(Cl)cc21 (stereo partly shown) , Ki value reported: 10 to 100 nM

Kindly note: UniProt:P47901, CCOc1ncccc1C1(OC(=O)N2CCN(C3CCN(C)CC3)CC2)C(=O)N(S(=O)(=O)c2ccc(OC)cc2)c2cc(F)c(F)cc21 (stereo not shown) , Ki value reported: 1 to 10 nM

###

Ki for Vasopressin V1b receptor (Homo sapiens, UniProt P47901), merged from several publications.

Query COc1ccc(S(=O)(=O)N2C(=O)C(c3ccc(CN4CCOCC4)cc3OC)(N3CCC[C@H]3C(=O)N(C)C)c3cc(Cl)ccc32)c(OC)c1 (single isomer, unassigned) yields Ki of 0.01 to 0.1 µM

Query COc1ccc(S(=O)(=O)N2C(=O)C(c3cc(CN4CCNCC4)ccc3OC)(N3CCCC3c3nccs3)c3cc(Cl)ccc32)cc1 (centres unmarked) yields Ki of 0.01 to 0.1 µM

Query CCOc1ncccc1C1(CC(=O)N2CCC(N3CCN(C)CC3)CC2)C(=O)N(S(=O)(=O)c2ccccc2OC)c2ccc(C#N)cc21.O=C(O)C(F)(F)F (racemic) yields Ki of 0.003 to 0.03 µM

Query CCOc1ncccc1C1(NC(=O)N2CCN(C3CCN(C)CC3)CC2)C(=O)N(S(=O)(=O)c2ccc(OC)cc2OC)c2cc(F)c(F)cc21 (centres unmarked) yields Ki of 0.01 to 0.1 µM

Query CCOc1ccc(OC)cc1C1(N2CCN(c3ccncc3)CC2)C(=O)N(S(=O)(=O)c2ccc(C)cn2)c2ccc(C#N)cc21 (racemic) yields Ki of < 0.01 µM

Query CCNCc1ccc(OC)c(C2(N3C[C@H](OC(C)(C)C)C[C@H]3c3ncco3)C(=O)N(S(=O)(=O)c3ccc(OC)cc3)c3ccc(Cl)cc32)c1 (some centres unmarked) yields Ki of < 0.01 µM

Query COc1ncccc1[C@]1(NC(=O)N2CC(N3CCC(N(C)C4COC4)CC3)C2)C(=O)N(S(=O)(=O)c2ccc(F)cc2F)c2ccc(C#N)cc21 yields Ki of 0.01 to 0.1 µM

Query COc1ccc(S(=O)(=O)n2c(=O)n(C(C(=O)N3CC[C@H](CN4CCN(C)CC4)C3)c3ccccc3)c3cc(C#N)ccc32)cc1 (some centres unmarked) yields Ki of < 0.1 µM

Query COc1ccc(S(=O)(=O)N2C(=O)C(c3cc(CN4CCN(C)CC4)ccc3OC)(N3CCC[C@@]3(C)c3ncco3)c3cc(Cl)ccc32)cc1 (some centres unmarked) yields Ki of 0.01 to 0.1 µM

Query CCCN1CCN([C@H]2CCN(C(=O)C(c3ccccc3)n3c(=O)n(S(=O)(=O)c4ccc(OCCF)cc4)c4ccc(C#N)cc43)C2)CC1 (some centres unmarked) yields Ki of 0.1 to 0.5 µM

Query CCCN1CCN(C2CCN(C(=O)C(c3ccccc3)n3c(=O)n(S(=O)(=O)c4ccc(OC)cc4)c4ccccc43)C2)CC1 (centres unmarked) yields Ki of < 0.1 µM

Query CCc1ccc(S(=O)(=O)N2C(=O)C(c3cc(CN4CCN(C)CC4)ccc3OC)(N3CCC[C@H]3c3ncco3)c3cc(Cl)ccc32)cc1 (some centres unmarked) yields Ki of 0.01 to 0.1 µM

Query CC(C)NC(=O)Cn1c(-c2cccc(Cl)c2)nc2ccc([C@H]3C[C@@H](CN4CC(C)OC(C)C4)C3)cc2c1=O (relative stereo) yields Ki of 0.01 to 0.1 µM

Query COc1ccc(S(=O)(=O)N2C(=O)C(c3cc(CN(C)C)ccc3OC)(N3C[C@H](OC(C)(C)C)C[C@H]3c3ncco3)c3cc(Cl)ccc32)cc1 (some centres unmarked) yields Ki of 0.01 to 0.1 µM

Query CCOc1ccccc1C1(NC(=O)N2CCN(C3CCN(CC)CC3)CC2)C(=O)N(S(=O)(=O)c2ccc(OC)cc2)c2cc(F)c(C#N)cc21 (centres unmarked) yields Ki of 0.001 to 0.01 µM

Query CCOc1nc(Cl)ccc1C1(N2CCN(c3ccncc3)CC2)C(=O)N(S(=O)(=O)c2ccc(C)cn2)c2ccc(C#N)cc21 (racemic) yields Ki of 0.01 to 0.05 µM

Query CCOc1ccc(C)cc1C1(N2CCN(c3ccncc3)CC2)C(=O)N(S(=O)(=O)c2ccc(OC)c3cccnc23)c2ccc(C#N)cc21 (racemic) yields Ki of < 0.01 µM

Query CCOc1ccccc1C1(N2CCN(c3ccnc(C)c3)CC2)C(=O)N(S(=O)(=O)c2ccc(OC)cc2OC)c2ccc(C#N)cc21 (centres unmarked) yields Ki of 0.05 to 0.5 µM

Query COc1ccc(S(=O)(=O)n2c(=O)n(C(C(=O)N3CCN(C4CCN(C(=O)OC(C)(C)C)CC4)CC3)c3ccccc3)c3cc(Cl)ccc32)cc1 (centres unmarked) yields Ki of 0.5 to 10 µM

Query CN1CCN(C2CCN(C(=O)C(c3ccccc3)n3c(=O)n(S(=O)(=O)c4ccc(C#N)cc4)c4ccc(Cl)cc43)CC2)CC1 (centres unmarked) yields Ki of 0.1 to 0.5 µM

###

Ki for Vasopressin V1b receptor (Homo sapiens, UniProt P47901), merged from several publications.

Kindly note: Vasopressin V1b receptor (Homo sapiens, UniProt P47901), COc1ccc(S(=O)(=O)N2C(=O)C(c3cc(CN(C)C(C)C)ccc3OC)(N3CCC[C@H]3c3ncco3)c3cc(C#N)ccc32)cc1 (stereo partly drawn) , Ki value reported: 10 to 100 nM

Kindly note: Vasopressin V1b receptor (Homo sapiens, UniProt P47901), CCCN1CCN([C@H]2CCN(C(=O)C(c3ccccc3)n3c(=O)n(S(=O)(=O)c4ccccc4)c4ccc(C#N)cc43)C2)CC1 (stereo partly drawn) , Ki value reported: 100 to 500 nM

Kindly note: Vasopressin V1b receptor (Homo sapiens, UniProt P47901), CCOc1ncccc1C1(NC(=O)N2CCN(C3CCN(C)CC3)CC2)C(=O)N(S(=O)(=O)c2ccc(OC)cc2)c2cc(F)c(C#N)cc21 (stereo not drawn) , Ki value reported: 1 to 10 nM

###

Ki for Vasopressin V1b receptor (Homo sapiens, UniProt P47901), merged from several publications.

Query CCOc1ncccc1[C@]1(NC(=O)N2CC(N3CCC(N(C)CCOC)CC3)C2)C(=O)N(S(=O)(=O)c2ccc(OC)cc2OC)c2ccc(C#N)cc21 yields Ki of 1 to 10 nM

Query COc1ccc(S(=O)(=O)N2C(=O)C(c3cc(CN4CCOCC4)ccc3OC)(N3CCC[C@H]3c3ncco3)c3cc(C#N)ccc32)cc1 (stereo partly shown) yields Ki of 10 to 100 nM

Query CCNCc1ccc(OC)c(C2(N3C[C@H](O)C[C@H]3c3ncco3)C(=O)N(S(=O)(=O)c3ccc(OC)cc3)c3ccc(C#N)cc32)c1 (stereo partly shown) yields Ki of < 10 nM

Query COc1ccc(S(=O)(=O)N2C(=O)C(c3ccccc3OC)(N3C[C@H]4C[C@@H]3CN4c3ccncc3)c3cc(Cl)ccc32)c(OC)c1 (stereo partly shown) yields Ki of 50 to 500 nM

###

pKi: −log10 of the molar value.
pKi for Vasopressin V1b receptor (Homo sapiens), merged from several publications.

Kindly note: Vasopressin V1b receptor (Homo sapiens), COc1ccc(S(=O)(=O)n2c(=O)n(C(C(=O)N3CC[C@@H](N4CCN(C)CC4)C3)c3ccccc3)c3cc(C#N)ccc32)cc1 (stereo partly drawn) , pKi value reported: 6.30 to 7.00

Kindly note: Vasopressin V1b receptor (Homo sapiens), CCOc1ncccc1C1(NCc2cccc(N3CCN(C)CC3)c2)C(=O)N(S(=O)(=O)c2ccc(OC)cc2)c2ccc(C#N)cc21 (stereo not drawn) , pKi value reported: 8.00 to 9.00

Kindly note: Vasopressin V1b receptor (Homo sapiens), CCOc1ncccc1[C@]1(NC(=O)N2CCC(N3CCN(C4COC4)CC3)CC2)C(=O)N(S(=O)(=O)c2ccc(C#N)cc2)c2ccc(C#N)cc21 , pKi value reported: 7.00 to 8.00

###

Ki for Vasopressin V1b receptor (Homo sapiens, UniProt P47901), merged from several publications.

Query CCOc1ccc(OC)cc1C1(N2CCN(c3ccncc3)CC2)C(=O)N(S(=O)(=O)c2ccc(OC)c3cccnc23)c2ccc(C#N)cc21 (racemic) yields Ki of < 10 nM

Query CCOc1ncccc1C1(OC(=O)N2CCN(C3CCN(C)CC3)CC2)C(=O)N(S(=O)(=O)c2ccc(OC)cc2OC)c2cc(F)c(C#N)cc21 (stereo not drawn) yields Ki of < 1 nM

Query COc1ccc(S(=O)(=O)N2C(=O)C(c3ccccc3OC)(N3CC4(CN(C5CCN(C6COC6)CC5)C4)C3)c3cc(C#N)ccc32)nc1 (single isomer, unassigned; (+)) yields Ki of 1 to 10 nM

Query O=C(C(c1ccccc1)n1c(=O)n(S(=O)(=O)c2ccc(C(F)(F)F)cc2)c2ccc(Cl)cc21)N1CCN(c2ccncc2)CC1 (stereo not drawn) yields Ki of 500 to 10000 nM

Query CCOc1ncccc1C1(NCc2ccc(N3CCN(C)CC3)cc2)C(=O)N(S(=O)(=O)c2ccccc2OC)c2ccc(C#N)cc21 (stereo not drawn) yields Ki of 1 to 10 nM

Query CCCN1CCN([C@H]2CCN(C(=O)C(c3ccccc3)n3c(=O)n(S(=O)(=O)c4cccs4)c4ccc(C#N)cc43)C2)CC1 (stereo partly drawn) yields Ki of 100 to 500 nM

Query CCOc1ccc(OC)cc1[C@]1(N2CC3(CN(C4CCN(C)CC4)C3)C2)C(=O)N(S(=O)(=O)c2ccccn2)c2ccc(C#N)cc21 yields Ki of 1 to 10 nM

Query COc1ccc(S(=O)(=O)N2C(=O)[C@@](NC(=O)N3CC(N4CCC(N(C(C)C)C5COC5)CC4)C3)(c3cccnc3OC)c3cc(C#N)ccc32)c(OC)c1 yields Ki of 10 to 100 nM

Query COc1ccc(S(=O)(=O)N2C(=O)C(c3ccc(CNC(C)C)cc3OC)(N3CCC[C@H]3c3ncco3)c3cc(C#N)ccc32)cc1 (stereo partly drawn) yields Ki of 10 to 100 nM

Query COc1ccc(S(=O)(=O)N2C(=O)C(c3cccc(CN4CCN(C)CC4)c3OC)(N3CCC[C@H]3c3ncco3)c3cc(Cl)ccc32)cc1 (stereo partly drawn) yields Ki of < 10 nM

Query CCOc1ccc(OC)cc1C1(N2CC3(CC(N4CCN(C5COC5)CC4)C3)C2)C(=O)N(S(=O)(=O)c2ccc(OC)cn2)c2ccc(C#N)cc21 (racemic) yields Ki of 1 to 10 nM

Query CCOc1ncccc1C1(OC(=O)N2CCN(C3CCN(C)CC3)CC2)C(=O)N(S(=O)(=O)c2ccc(OC)cc2)c2cc(F)c(Cl)cc21 (stereo not drawn) yields Ki of < 1 nM

Query CCCN1CCN([C@H]2CCN(C(=O)C(c3ccccc3)n3c(=O)n(S(=O)(=O)c4ccc(OCC(F)(F)F)cc4)c4ccc(C#N)cc43)C2)CC1 (stereo partly drawn) yields Ki of 100 to 500 nM

Query COc1ccc(S(=O)(=O)n2c(=O)n(C(C(=O)N3CC[C@H](CN4CCN(Cc5ccccc5)CC4)C3)c3ccccc3)c3cc(C#N)ccc32)cc1 (stereo partly drawn) yields Ki of < 100 nM

Query COc1ccc(S(=O)(=O)n2c(=O)n(C(C(=O)N3CCN(C4CCN(C)CC4)CC3)c3ccccc3)c3cc(C#N)ccc32)cc1 (stereo not drawn) yields Ki of 500 to 10000 nM
